Give pIC50 for every item shown.
target of assay: Xanthine dehydrogenase/oxidase (Bos taurus)
Sequence (P80457 whole entry): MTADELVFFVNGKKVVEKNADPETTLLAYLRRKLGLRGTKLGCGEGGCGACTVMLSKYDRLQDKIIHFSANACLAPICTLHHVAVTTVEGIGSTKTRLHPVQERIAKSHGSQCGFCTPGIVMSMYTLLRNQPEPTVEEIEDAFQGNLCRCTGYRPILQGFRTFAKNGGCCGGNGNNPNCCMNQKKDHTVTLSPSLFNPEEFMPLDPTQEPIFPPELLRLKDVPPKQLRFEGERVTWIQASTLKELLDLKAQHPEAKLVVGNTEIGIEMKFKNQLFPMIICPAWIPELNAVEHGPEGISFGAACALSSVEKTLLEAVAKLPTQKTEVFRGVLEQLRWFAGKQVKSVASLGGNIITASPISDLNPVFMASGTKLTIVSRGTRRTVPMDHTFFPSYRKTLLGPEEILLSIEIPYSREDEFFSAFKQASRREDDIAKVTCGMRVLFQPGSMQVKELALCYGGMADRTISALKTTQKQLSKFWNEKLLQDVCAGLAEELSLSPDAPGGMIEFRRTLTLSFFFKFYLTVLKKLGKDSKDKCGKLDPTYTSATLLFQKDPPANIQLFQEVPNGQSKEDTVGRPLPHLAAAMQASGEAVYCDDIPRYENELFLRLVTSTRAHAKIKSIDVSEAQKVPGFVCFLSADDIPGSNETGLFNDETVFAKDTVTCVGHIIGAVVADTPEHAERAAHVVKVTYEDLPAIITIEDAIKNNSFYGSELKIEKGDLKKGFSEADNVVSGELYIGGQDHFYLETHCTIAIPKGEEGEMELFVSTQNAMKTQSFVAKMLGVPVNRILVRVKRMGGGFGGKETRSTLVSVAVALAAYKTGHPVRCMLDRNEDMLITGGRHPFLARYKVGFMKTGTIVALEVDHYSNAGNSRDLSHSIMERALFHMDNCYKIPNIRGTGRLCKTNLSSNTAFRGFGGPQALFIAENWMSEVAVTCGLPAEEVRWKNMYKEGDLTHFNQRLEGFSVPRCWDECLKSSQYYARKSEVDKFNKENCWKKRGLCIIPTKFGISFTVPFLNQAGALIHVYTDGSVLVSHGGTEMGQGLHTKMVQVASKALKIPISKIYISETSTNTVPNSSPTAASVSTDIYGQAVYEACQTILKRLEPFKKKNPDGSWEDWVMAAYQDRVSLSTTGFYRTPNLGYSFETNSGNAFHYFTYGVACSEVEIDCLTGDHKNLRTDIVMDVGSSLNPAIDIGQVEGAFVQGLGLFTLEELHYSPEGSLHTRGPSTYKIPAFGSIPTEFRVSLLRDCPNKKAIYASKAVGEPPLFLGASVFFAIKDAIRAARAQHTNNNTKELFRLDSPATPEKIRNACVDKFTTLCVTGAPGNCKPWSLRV
measurement protocol: Inhibition of bovine milk xanthine oxidase by spectrophotometry
Note on pIC50: it is the negative log10 of concentration, concentration in mol/L.

Challenge: Record lookup: for Xanthine dehydrogenase/oxidase (Bos taurus), what pIC50 belongs to Cc1cc(=O)n2nc(COc3ccccc3C)sc2n1 ?
Response given: 6.49

Challenge: Record lookup: for Xanthine dehydrogenase/oxidase (Bos taurus), what pIC50 belongs to Cc1cccc(OCc2nn3c(=O)cc(C)nc3s2)c1 ?
Response given: 5.99

Challenge: Record lookup: for Xanthine dehydrogenase/oxidase (Bos taurus), what pIC50 belongs to Cc1cc(=O)n2nc(COc3ccccc3Br)sc2n1 ?
Response given: 6.22

Challenge: Record lookup: for Xanthine dehydrogenase/oxidase (Bos taurus), what pIC50 belongs to Cc1cc(=O)n2nc(COc3ccc(Cl)cc3)sc2n1 ?
Response given: 6.34
